- Test system: MS2 coat protein
- PROTOCOL_DESCRIPTION: apparent KD of MS2 coat protein; higher = weaker reporter binding
- ASSAY_CONTEXT: Eterna round: R107; input ligand: none
Quick rule for you: apparent KD of MS2 coat protein at 60 nM or higher means criterion met, lower means criterion not met.

Solved entries (count: 6):
>  <BIOSEQUENCE>
AUACAUGAGGAUCACCCAUGUUAUAGUGAAGGAGCGACAUUUAGGUCAGGUAGGUCGCACUAUUGAAUUAUUAUCCUUAUUUCUU [JR_ExcArginiA_Sub020]

>  <ASSIGNED_LABEL>
criterion not met

$$$$
>  <BIOSEQUENCE>
GAGCUGAUGUAGAGCUUAUAUAAGAGAGAUACCAGUACAGAAAUGUACCCUUGGCAGCUCAACUUUACAUGAGGAUCACCCAUGU [Ex Theophylline A 20]

>  <ASSIGNED_LABEL>
criterion not met

$$$$
>  <BIOSEQUENCE>
AAAUAAAUACAUGAGGAUCACCCAUGUGAAGGAGCGCCCGUUAGGGCAGGUAGGUCGCACAUGAAUAACUCCGUGCAAAAGCACA [ArgEX 18 #OpenEnded]

>  <ASSIGNED_LABEL>
criterion not met

$$$$
>  <BIOSEQUENCE>
CUGGCAGGAUUCUCAGCUGUCAGGGCUGAUACCAGCCACGAAAGUGGCCCUUGGCAGCAGCAAACAUGAGGAUCACCCAUGUAAU [(T)''-(M)'-(T)'-(Theo)-(Ms2)_Design1]

>  <ASSIGNED_LABEL>
criterion met

$$$$
>  <BIOSEQUENCE>
GCACCAGGUACGGAUACCAGCUAUAGGUACAGCGGAGGACAUGAGGAUCACCCAUGUGGUAGCCCUUGGCAGCUGUACCUGGUGC [EThB NP+V+V2 #1 +-Same Structure]

>  <ASSIGNED_LABEL>
criterion not met

$$$$
>  <BIOSEQUENCE>
AAUAACUUGAGGAUCACCCAAGUAAAAGAUACCAGAGUGAUGAUCCUCCCUUGGCAGCUUAACGCUGAUUGAUUACAAUCAGCGA

>  <ASSIGNED_LABEL>
criterion met

$$$$

Please tell me: is the sequence CGUAUUACGAAAGUAGUACGUAGUGUUCGACGAGGACCGGUACGGCCGCCACUCGGACAUGAGGAUCACCCAUGUAGCGAAAGCU [Tryptophan A 24] at or over 60 nM in terms of apparent KD of MS2 coat protein?
criterion met

Please tell me: is the sequence GGUGGCGGGACUGAUACCAGCCACCACCGAUAGACCACAUGAGGAUCACCCAUGUUGGGUGGCCCUUGGCAGCAGUCUUGCGGCU [#1 Same State - Theophylline B Attempt #14 (HarryS)] at or over 60 nM in terms of apparent KD of MS2 coat protein?
criterion met

Please tell me: is the sequence CUUGAGACAUGAGGAUCACCCAUGUCCGAAGGAGCGUGCGAAAGCACAGGUAGGUCGCGGACGUGAGGAUCUCCCAUGUGAGCGA [#25 Exclusion - Arginine A] at or over 60 nM in terms of apparent KD of MS2 coat protein?
criterion not met

Please tell me: is the sequence AUAACAUGAGGAUCACCCAUGUAAGCUGAAGGAGCGCUGGAAACAGCAGGUAGGUCGCAGCUACCUACCACCUCAUGAGGUAGGU [(M1)-(M2)-(Arg1)-(Arg2)-(A)'-(M)'-(A)''_Design6] at or over 60 nM in terms of apparent KD of MS2 coat protein?
criterion not met

Please tell me: is the sequence ACAUGAGUGGAUAAUAAAUAAGAAGGCGAAGGAGCGUGAAGAAUCACAGGUAGGUCGCGCAAAAUACAUGAGGAUCACCCAUGUU [JR_Nu_ExcArginiA_Sub031] at or over 60 nM in terms of apparent KD of MS2 coat protein?
criterion not met
